Please go through the items and note down their TGI.
Test system: K-562 leukemia
Assay: NCI tumour cell line growth inhibition, 48 h

Please review the following examples before continuing.
O=C(Nc1cccc(-n2cc(-c3ccncc3)c(-c3ccc(Cl)c(O)c3)n2)c1)Nc1ccc(Cl)c(Cl)c1; > 32.5 µM
CSC1=Nc2ccccc2N=C(c2ccccc2)C1; > 100 µM
O=C1CCC2COc3ccc(O)c1c32 (configuration not stated); > 100 µM
O=C(CCN1CCCN(c2cnc3ccccc3n2)CC1)c1csc2ccccc12; 48.6 µM
COc1ccc(-c2cc(=O)c3cc(O)ccc3o2)c(OC)c1OC; > 100 µM

Please report TGI for every entry that follows.
1. Cn1c(=O)cc(Nc2ccc(N)cc2)[nH]c1=O
2. COc1ccc(/C=C\c2cc(OC)c(OC)c(OC)c2)c(NS(=O)(=O)c2ccc(F)cc2)c1O

["> 100 µM", "> 76 µM"]

----------
Test system: HCT-116 colon
Test: NCI tumour cell line growth inhibition, 48 h
readout.kind: TGI

COc1ccc(C=O)cc1OS(=O)(=O)C(F)(F)C(F)(F)C(F)(F)C(F)(F)F; > 70.4 µM
O=C(CC(C(=O)c1cccs1)c1ccc2c(c1)OCO2)c1ccccc1 (stereo unspecified); > 100 µM
COC(=O)C1Cc2cc3c(cc2C1)CCC3; > 100 µM
COC(=O)Nc1nc2ccc(C(=O)c3ccc(F)cc3)cc2[nH]1; > 100 µM
CC(N)C(C)c1ccccc1 (stereo unspecified); > 100 µM

Now let's try a different one.
Fill in reported TGI for this entry: "COc1cc(C)[nH]c(=O)c1CNC(=O)c1c(C)n([C@H](C)C2CCN(CC(F)(F)F)CC2)c2ccccc12"
> 100 µM

----------
System: HL-60(TB) leukemia
Assay: NCI tumour cell line growth inhibition, 48 h; in the data active = GI50 below about 0.43 µM; inactive = the rest
Parameter call: string, one of y for active, n for inactive

Worked examples, 5 compounds total:
O=c1/c(=C\c2ccc(Br)cc2)sc2n1C(c1ccc(Br)cc1)C1=C(N=2)c2ccc3ccccc3c2OCC1 (stereo unspecified); n
CC[C@@]1(O)C(=O)OCc2c1cc1n(c2=O)Cc2c-1nc1cc(F)c(C)c3c1c2[C@@H](NC(=O)CO)CC3; y
CCOc1ccc2c(c1)C(=O)c1c-2n(CCCN=[N+]=[N-])c(=O)c2cc([N+](=O)[O-])ccc12; n
Cc1cc(N=Cc2c(CO)cnc(C)c2O)c(N=Cc2c(CO)cnc(C)c2O)cc1C; y
O=C1OCC2=C1C(c1cccc(Cl)c1)c1cc3c(cc1N2CCO)CCC3 (stereo unspecified); y

Please examine the following record next.
// param item: "C[C@]12CC[C@@H]3c4ccc(OC(=O)N(CCCl)CCCl)cc4CC[C@H]3[C@@H]1CC[C@@H]2OP(=O)(O)O" ; yields the recorded call
n

----------
Tested on: LOX IMVI melanoma
Experiment: NCI tumour cell line growth inhibition, 48 h; in the data active = GI50 below about 0.43 µM; inactive = the rest
Parameter call: string, one of active, inactive

Cn1c(=O)c(Oc2ccc(F)cc2F)cc2cnc(NCC(C)(C)O)nc21; inactive
O=C(Nc1cccc(-n2cc(-c3ccncc3)c(-c3ccc(Cl)c(O)c3)n2)c1)Nc1ccc(Cl)c(Cl)c1; inactive
CCN(CC)CC(O)c1cc(-c2ccc(Cl)cc2)nc2c(C)c(Cl)ccc12 (stereo unspecified); inactive

// param item: "COc1ccc(/C=C\c2cc(OC)c(OC)c(OC)c2)c(NS(=O)(=O)c2ccc(F)cc2)c1O" ; yields the recorded call
active

// param item: "O=C(CCN1CCCN(c2cnc3ccccc3n2)CC1)c1csc2ccccc12" ; yields the recorded call
inactive

// param item: "COC(=O)c1cccc(NC(=O)c2ccc(NC3=C(Cl)C(=O)N(Cc4ccccc4)C3=O)cc2)c1" ; yields the recorded call
inactive

// param item: "C#CCNC(=O)CC[C@@H](C)[C@H]1CC[C@H]2[C@@H]3CC[C@@H]4CC(=O)CC[C@]4(C)[C@H]3CC[C@]12C" ; yields the recorded call
inactive

----------
System: NCI-H226 lung
Experiment: NCI tumour cell line growth inhibition, 48 h
readout.kind: TGI

Please review the following examples before continuing.
COC(=O)c1c2c(cc3c1CC1(C3)Cc3cc4c(c(C(=O)OC)c3C1)CCC4)CCC2; > 100 µM
O=C(/C=C/C=C/c1ccc2c(c1)OCO2)N/N=C\c1ccc(O)cc1O; 11.3 µM

Now let's try a different one.
Fill in reported TGI for this entry: "C=CC(=O)N1CCC[C@@H](n2nc(-c3ccc(Oc4ccccc4)cc3)c3c(N)ncnc32)C1"
> 10 µM

----------
System: HOP-18 NSCLC
Experiment: NCI tumour cell line growth inhibition, 48 h
readout.kind: TGI

Please review the following examples before continuing.
CC(N)C(C)c1ccccc1 (stereo unspecified); > 100 µM
CC1OC(CO)(n2cnc3c(N)ncnc32)C(O)C1O (stereo unspecified); > 100 µM
C[C@]12CCc3nn(-c4ccccc4)nc3C1CC[C@@H]1C2CC[C@]2(C)C(=O)CCC12 (stereo partly specified); > 100 µM
C=C1CN2CCc3c([nH]c4ccccc34)C2CC1CC(=O)N(C)C (stereo unspecified); > 309 µM
CCN(CC)C(=O)CC12CCCCC1=Nc1ccccc12 (stereo unspecified); > 100 µM

Now let's try a different one.
Fill in reported TGI for this entry: "O=c1oc2ccccc2n1P(=O)(Oc1ccc(Cl)cc1)n1c(=O)oc2ccccc21"
> 100 µM

----------
Please go through the items and note down their TGI.
Tested on: MDA-N
Test: NCI tumour cell line growth inhibition, 48 h

Please review the following examples before continuing.
Cn1c(=O)cc(Nc2ccc(N)cc2)[nH]c1=O; > 100 µM
CN(/N=C/C=N/N(C)C1=NCCN1)C1=NCCN1; > 100 µM

Fill in reported TGI for this entry: "CN(C)NC1=NS(=O)(=O)c2cc3c(=O)n(C)[nH]c3cc2S1"
> 10 µM

----------
Tested on: EKVX NSCLC
Assay: NCI tumour cell line growth inhibition, 48 h
readout.kind: TGI

Please review the following examples before continuing.
Cc1cccc(N=N/C(=N\NC(=O)c2cc(Cl)ccc2O)c2ccc(N(CCC#N)CCC#N)cc2C)c1; > 100 µM
[O-][N+]1=C2CCC/C(=N/O)C2(O)C2CCCCC21N1CCOCC1 (stereo not drawn); > 100 µM

Now let's try a different one.
Fill in reported TGI for this entry: "CCOc1ccc2c(c1)C(=O)c1c-2n(CCCN=[N+]=[N-])c(=O)c2cc([N+](=O)[O-])ccc12"
> 100 µM

----------
Test system: UACC-62 melanoma
Test: NCI tumour cell line growth inhibition, 48 h
readout.kind: TGI

Please review the following examples before continuing.
CN1CCN(c2n[nH]c(=O)c3c2nnn3C2CCCCC2)CC1; > 100 µM
CC1C(O)=C(O)c2ccccc2N1O (configuration not stated); > 100 µM

Please report TGI for every entry that follows.
1. CCOc1cc2c(cc1O)C(=O)C[C@@H]1[C@@H]2CC[C@]2(C)[C@@H](O)CC[C@@H]12
2. O=C1CN(c2ccccc2)C(=O)CN1NCNN1CC(=O)N(c2ccccc2)CC1=O
3. COC(=O)c1c2c(cc3c1CC1(C3)Cc3cc4c(c(C(=O)OC)c3C1)CCC4)CCC2

["> 100 µM", "> 100 µM", "> 100 µM"]

Please report TGI for every entry that follows.
1. Cc1[nH]nc(C(=O)N/N=C/c2ccccc2Cl)c1N=NN(C)C
2. CSC1=Nc2ccccc2N=C(c2ccccc2)C1
3. COC(=O)C1=CC(=O)[C@@H]2CCCC[C@H]12
4. CCn1ncc(N=O)c1N
5. O=C(CCCn1ccnc1[N+](=O)[O-])NCCn1cnc([N+](=O)[O-])n1
6. CC1CCc2c(sc3ncnc(N/N=C/c4ccc(Cl)cc4)c23)C1 (configuration not stated)

1. > 100 µM
2. > 100 µM
3. > 100 µM
4. > 100 µM
5. > 100 µM
6. > 100 µM

Please report TGI for every entry that follows.
1. CCN(CC)C(=O)CC12CCCCC1=Nc1ccccc12 (configuration not stated)
2. N=c1oc2cc(O)ccc2cc1C(=O)Nc1cccc2ccccc12
3. CCCC(C(=O)OC)C1N=C(NC#N)N(Cc2ccccc2)C1=O (configuration not stated)
4. CCOC(=O)CC1Nc2ccccc2C12CCc1c([nH]c3ccccc13)C2C(=O)OCC (configuration not stated)
5. C=C(C)[C@H]1CC(=O)[C@@]2(C)C[C@H]3O[C@]3(C)CC/C=C(\C)CC[C@H]12
6. COCCn1c2c([n+](Cc3cnccn3)c1C)C(=O)c1ccccc1C2=O

["> 100 µM", "14.3 µM", "> 100 µM", "> 100 µM", "74.1 µM", "0.0454 µM"]

----------
Test system: SF-295 CNS
Experiment: NCI tumour cell line growth inhibition, 48 h
readout.kind: TGI

Please review the following examples before continuing.
NS(=O)(=O)c1ccc(NC(=O)c2ccc3nc4ccccc4c(Nc4ccc(S(N)(=O)=O)cc4)c3c2)cc1; > 100 µM
COc1cc(C)[nH]c(=O)c1CNC(=O)c1c(C)n([C@H](C)C2CCN(CC(F)(F)F)CC2)c2ccccc12; > 100 µM
O=C(CCN1CCCN(c2cnc3ccccc3n2)CC1)c1csc2ccccc12; > 100 µM
COc1cc(N2CCC(N)CC2)ccc1Nc1ncc(Cl)c(-c2c[nH]c3ccccc23)n1; 3.31 µM
Cn1c(=O)n(C2(C)CSC2)c2ccccc21; > 100 µM

Please report TGI for every entry that follows.
1. C[C@]12CC[C@H]3[C@@H](CC[C@]4(O)C[C@@H](O[C@@H]5O[C@H](CO)[C@@H](O[C@@H]6OC[C@@H](O)[C@H](O)[C@H]6O)[C@H](O)[C@H]5O)CC[C@]34C=O)[C@@]1(O)CC[C@@H]2C1=CC(=O)OC1
2. Cc1cc(N=Cc2c(CO)cnc(C)c2O)c(N=Cc2c(CO)cnc(C)c2O)cc1C
3. C=C1CC[C@@H]2[C@](C)(COC(=O)CCC(=O)O)CCC[C@@]2(C)[C@@H]1CCC1=CC(=O)OC1
4. Nc1ccc(C2SCC(=O)N2NS(=O)(=O)c2cccc(C(=O)O)c2)cc1 (configuration not stated)
5. CC#CC#C/C(=C/C=CC(=O)OC)SC
6. CCCCCCCCCCCCCCCCCCOc1ccccc1COP(=O)(O)OOCC[N+](C)(C)C
7. S=C(S)NCCN1CCNCC1

6.27 µM
> 100 µM
> 100 µM
> 100 µM
> 100 µM
4.32 µM
> 100 µM

Please report TGI for every entry that follows.
1. CC(C)C1=CC2=C(C(=O)C1=O)C13CCCC(C)(C)C1CC2OC3=O (configuration not stated)
2. CN1CCN(c2n[nH]c(=O)c3c2nnn3C2CCCCC2)CC1
3. CC(C)c1c(O[Si](C(C)C)(C(C)C)C(C)C)cc2c(c1O)CC[C@H]1C(C)(C)CCC[C@]21C
4. O=C(/C=C/C=C/c1ccc2c(c1)OCO2)N/N=C\c1ccc(O)cc1O
5. CC(=O)Nc1cc2c3c(cccc3c1)-c1ccccc1-2
6. CCOc1cc2c(cc1O)C(=O)C[C@@H]1[C@@H]2CC[C@]2(C)[C@@H](O)CC[C@@H]12
7. CCN(/N=C1\CC2C=CCN(C2)C(=O)Cc2c1[nH]c1ccccc21)S(=O)(=O)c1ccc(C)cc1 (configuration not stated)
8. O=C(CCCn1ccnc1[N+](=O)[O-])NCCn1cnc([N+](=O)[O-])n1

1. > 100 µM
2. > 100 µM
3. > 100 µM
4. 12.9 µM
5. 22.6 µM
6. 9.52 µM
7. > 100 µM
8. > 100 µM

Please report TGI for every entry that follows.
1. COc1cccc(/C=N/[N-]C(N)=O)c1[O-].[Co+2].[OH3+].c1ccncc1
2. CCc1ncc(CO)n1Cc1cccc2ccccc12
3. CC1C(O)=C(O)c2ccccc2N1O (configuration not stated)
4. C#CCNC(=O)CC[C@@H](C)[C@H]1CC[C@H]2[C@@H]3CC[C@@H]4CC(=O)CC[C@]4(C)[C@H]3CC[C@]12C

1. > 100 µM
2. > 100 µM
3. > 100 µM
4. 49.4 µM

Please report TGI for every entry that follows.
1. COc1ccc(C=O)cc1OS(=O)(=O)C(F)(F)C(F)(F)C(F)(F)C(F)(F)F
2. CN1C2(c3ccccc3)C(C(=O)c3ccccc3)=C(C(=O)c3ccccc3)C1(c1ccccc1)c1c(-c3ccccc3)sc(-c3ccccc3)c12
3. CN(/N=C/C=N/N(C)C1=NCCN1)C1=NCCN1
4. Cc1c(Cl)c(C)c(Cl)c(O)c1Cl
5. CC(=O)OCC1OC(O[C@H]2C=C[C@@H](C(=O)OCc3ccccc3)n3c(=O)n(-c4ccccc4)c(=O)n32)C(OC(C)=O)C(OC(C)=O)C1OC(C)=O (some centres not stated)
6. O=C1N[C@H](C(=O)O)[C@@H](c2ccc(OCc3ccccc3)cc2)O1
7. COc1ccc(/C=C\c2cc(OC)c(OC)c(OC)c2)c(NS(=O)(=O)c2ccc(F)cc2)c1O

1: 53 µM; 2: > 100 µM; 3: > 100 µM; 4: > 100 µM; 5: 25.3 µM; 6: 79.6 µM; 7: > 45.9 µM

Please report TGI for every entry that follows.
1. COC(=O)Nc1nc2ccc(C(=O)c3ccc(F)cc3)cc2[nH]1
2. O=C(CC(=O)c1cccc([N+](=O)[O-])c1)C(=O)Nc1ccccc1
3. COc1cc(N(CCCl)CCCl)ccc1/C=N\NC(=O)c1cccnc1
4. CC(C)C(CCOS(=O)(=O)O)CCC(C)[C@H]1[C@@H](O)C(O)C2[C@]3(O)C[C@@H](O)C4(O)C[C@@H](O)CC[C@]4(C)C3CC[C@@]21C (some centres not stated)
5. COc1nc(NC2OC(CO)C(O)C(O)C2O)c(N)c(=O)[nH]1 (configuration not stated)

["0.966 µM", "> 100 µM", "35.7 µM", "> 100 µM", "> 100 µM"]

Fill in reported TGI for this entry: "COc1ccc(-c2c3c(nc4nc(SCC(=O)c5ccc(Br)cc5)nc(N)c24)CCCC3)cc1OC"
> 100 µM
